# TESTED SYSTEM: Adenosine receptor A1 (Homo sapiens) (UniProt P30542)
# Sequence (P30542 whole entry): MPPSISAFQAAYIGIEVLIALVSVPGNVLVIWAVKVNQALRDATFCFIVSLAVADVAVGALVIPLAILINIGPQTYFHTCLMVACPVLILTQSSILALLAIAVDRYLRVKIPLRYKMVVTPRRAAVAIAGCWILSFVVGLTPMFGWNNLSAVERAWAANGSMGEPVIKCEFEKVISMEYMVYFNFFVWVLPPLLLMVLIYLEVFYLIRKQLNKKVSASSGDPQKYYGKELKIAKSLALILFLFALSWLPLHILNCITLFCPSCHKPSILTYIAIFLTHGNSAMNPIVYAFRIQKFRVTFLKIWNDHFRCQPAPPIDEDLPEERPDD
# ASSAY SUMMARY: Percent change in cAMP content of CHO (Chinese hamster ovary) cells expressing human Adenosine A1 receptor at 10 uM
# Assay type: functional, cell-based
VALUE TYPE: Change (%)

Please review the following examples before continuing.
* COc1ccc(C(=O)c2c(N)sc3c2CCCC3)c2ccccc12 | -17
* Cc1sc(N)c(C(=O)c2cccc(C(F)(F)F)c2)c1C | -50
* Cc1ccc(C(=O)c2c(N)sc3c2CCC3)c2ccccc12 | -48
* Cc1sc(N)c(C(=O)c2ccc3ccccc3c2)c1C | -28
* Cc1cc(C(=O)c2c(N)sc3c2CCC3)cc2ccccc12 | -34

[A] Cc1sc(N)c(C(=O)c2cccc3ccccc23)c1C
[B] Nc1sc2c(c1C(=O)c1ccc3ccccc3c1)CCN(Cc1ccccc1F)C2
[C] COc1ccc(C(=O)c2c(N)sc3c2CCN(Cc2ccccc2)C3)c2ccccc12
[D] Nc1sc2c(c1C(=O)c1ccc(Cl)c3ccccc13)CCN(Cc1ccccc1)C2
*Q* Order the records, beginning with the lowest Change and ending with the highest. I would appreciate it if you listed the labels in the requested order.
*A* A, B, D, C
